meta.source: patent US20120172293A1

Biological target: human Y2 receptor (human) (UniProt P49146)
Sequence (P49146 whole entry): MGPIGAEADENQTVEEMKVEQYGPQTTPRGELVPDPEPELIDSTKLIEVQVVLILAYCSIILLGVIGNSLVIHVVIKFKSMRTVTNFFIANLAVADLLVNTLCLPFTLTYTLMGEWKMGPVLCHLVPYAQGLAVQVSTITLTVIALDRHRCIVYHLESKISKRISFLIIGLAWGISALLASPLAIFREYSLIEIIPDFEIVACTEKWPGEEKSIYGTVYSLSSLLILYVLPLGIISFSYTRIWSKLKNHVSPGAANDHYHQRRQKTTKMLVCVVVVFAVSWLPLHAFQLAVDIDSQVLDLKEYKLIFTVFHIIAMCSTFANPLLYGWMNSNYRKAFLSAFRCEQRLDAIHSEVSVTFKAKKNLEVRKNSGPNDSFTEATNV
Assay: RBA: displacement of [125I]-PYY from hY2R/CHO membranes
Starred links: 1 amine or outer side, 2 acyl side, 3 side chain; linkers in the order of their positions; H or OH if unused. Non-standard residues stand in square brackets, D forms with d. Ala(piperidin-4-yl) = O=C([C@H](CC1CCN([*:3])CC1)N[*:1])[*:2]; 4Pal = N[C@@H](Cc1ccncc1)C(=O)O; Cha = N[C@@H](CC1CCCCC1)C(=O)O; Suc = O=C(CCC(=O)[*:2])[*:1]; Aib = CC(C)(N)C(=O)O
Recorded endpoint: IC50 Ratio (IC50 compound/IC50 PYY(3-36))

# Binder, Measured number
data = [
    ("Ac-S[dP][Ala(piperidin-4-yl)][4Pal][Cha][Aib]NK[Aib]TRQR[Cha]-NH2 (also: Ala(4Pip)25 D or L, not assigned, former peak isomer) [Ac-[D-Pro24, Ala(4Pip)25, Pya(4)26, Cha27,36, Aib28,31, Lys30]-PYY(23-36) former peak]", 18),
    ("Suc-Q[dP]R[4Pal][Cha][Aib]NK[Aib]TRQR[Cha]-NH2 (SMILES C[C@@H](O)[C@H](NC(=O)C(C)(C)NC(=O)[C@H](CCCCN)NC(=O)[C@H](CC(N)=O)NC(=O)C(C)(C)NC(=O)[C@H](CC1CCCCC1)NC(=O)[C@H](Cc1ccncc1)NC(=O)[C@H](CCCNC(=N)N)NC(=O)[C@H]1CCCN1C(=O)[C@H](CCC(N)=O)NC(=O)CCC(=O)O)C(=O)N[C@@H](CCCNC(=N)N)C(=O)N[C@@H](CCC(N)=O)C(=O)N[C@@H](CCCNC(=N)N)C(=O)N[C@@H](CC1CCCCC1)C(N)=O) [3-Carboxypropionyl-[Gln23, D-Pro24, Pya(4)26, Cha27,36, Aib28,31, Lys30]-PYY(23-36)]", 2),
    ("Suc-[dP]R[4Pal][Cha][Aib]NK[Aib]TRQR[Cha]-NH2 (SMILES C[C@@H](O)[C@H](NC(=O)C(C)(C)NC(=O)[C@H](CCCCN)NC(=O)[C@H](CC(N)=O)NC(=O)C(C)(C)NC(=O)[C@H](CC1CCCCC1)NC(=O)[C@H](Cc1ccncc1)NC(=O)[C@H](CCCNC(=N)N)NC(=O)[C@H]1CCCN1C(=O)CCC(=O)O)C(=O)N[C@@H](CCCNC(=N)N)C(=O)N[C@@H](CCC(N)=O)C(=O)N[C@@H](CCCNC(=N)N)C(=O)N[C@@H](CC1CCCCC1)C(N)=O) [3-Carboxypropionyl-[D-Pro24, Pya(4)26, Cha27,36, Aib28,31, Lys30]-PYY(24-36)]", 1.2),
]
